# Test system: HCC-2998 colon
# Assay Info: NCI-60 one-dose screen, 48 h (100 = growth as untreated, 0 = no growth, -100 = all killed)
# Run Parameters: 10 µM unless noted
This is part of a sample that, as a whole, favours compounds with a hit. Of some 83,000 tested, about 20% had one in any assay.
Observed Property: growth (%)
// note: answer is a bare numeric in %

input: Field request: growth | item: CCCn1cnc2c(c1=N)C(c1ccc(F)cc1)c1sc3c(F)cccc3c1O2 (stereo not drawn)
output: 76.9

input: Field request: growth | item: `N#Cc1cncc(-c2ccc3ncnc(Nc4cccc(Cl)c4)c3c2)c1`
output: 88.4

input: Field request: growth | item: `O=C1/C(=C\c2cccc3nccnc23)SC(=S)N1CCc1ccc(O)cc1`
output: 116

input: Field request: growth | item: `COc1ccc(C(=O)N2c3ccccc3Sc3ccccc32)c(C(F)(F)F)c1`
output: 26

input: Field request: growth | item: `COc1cc2c(cc1OCCCCN1CCN(C(=S)SCCC(C#N)(c3ccccc3)c3ccccc3)CC1)N=C[C@@H]1CCCN1C2=O`
output: -72.3

input: Field request: growth | item: COc1ccc(CCN(CC(=O)N(CC(N)=O)C2CCC[C@@H]2OCc2ccccc2)C(=O)CN(C(=O)CN(CCc2ccc(Cl)cc2)C(=O)CN(C(=O)CN(C)Cc2ccccc2F)[C@H](C)C2CCCCC2)[C@H](C)C2CCCCC2)cc1OC (stereo partly drawn)
output: 0.406

input: Field request: growth | item: `Cn1cc(-c2csc(-c3c[nH]c4ccc(F)cc34)n2)c2ccnc(Cl)c21`
output: 70.8

input: Field request: growth | item: `COc1cc(OC)c2sc(-c3ccc(-n4cncc4-c4cc(OC)c(OC)c(OC)c4)cc3)nc2c1`
output: 95.3

----------
# System: CCRF-CEM leukemia
# Assay Info: NCI-60 one-dose screen, 48 h (100 = growth as untreated, 0 = no growth, -100 = all killed)
# Run Parameters: 10 µM unless noted
This is part of a sample that, as a whole, favours compounds with a hit. Of some 83,000 tested, about 20% had one in any assay.
Observed Property: growth (%)
// note: answer is a bare numeric in %

input: Field request: growth | item: `FC(F)(F)Oc1cccc(-c2cnc3ccc(-c4ccncc4)nn23)c1`
output: 4.57

input: Field request: growth | item: `CC(=O)Oc1ccc(OC(C)=O)c2ccccc12`
output: -6.08

input: Field request: growth | item: `CCn1c(-c2cc3c([nH]c4ccccc43)c(-c3cccc(O)c3)n2)n[nH]c1=S`
output: 28

input: Field request: growth | item: `COc1ccc(CNc2c3ccccc3nc3ccccc23)c(OC)c1`
output: 55.4

input: Field request: growth | item: `CCN(CC)CCCN1C(=O)c2c(c(C)c3c(oc4ccc(O)cc43)c2C)C1=O`
output: -19.7

input: Field request: growth | item: `CNC(=O)c1cc(Oc2ccc3c(c2)sc2nc(-c4ccc(OC)cc4)cn23)ccn1`
output: 66.9

input: Field request: growth | item: COc1ccc(CCN2C(=O)/C(=C/c3ccc(C4Oc5ccccc5C5CC(c6ccccc6)=NN54)cc3)SC2=S)cc1 (centres undefined)
output: 36.6

input: Field request: growth | item: `O=C(/C=C/c1ccc(Cl)cc1)c1cccc(OCCCOc2cccc(C(=O)/C=C/c3ccc(Cl)cc3)c2)c1`
output: 92.9

input: Field request: growth | item: `Cc1ccc(C)c(/C=C2\CN(C(=O)OC(C)(C)C)C/C(=C\c3cc(C)ccc3C)C2=O)c1`
output: 4.98
